# SUBJECT OF TEST: T1, EsCas13d, nuclease-dead (Eubacterium siraeum, UniProt B0MS50, R295A;H300A;R849A;H854A)
# T1 sequence: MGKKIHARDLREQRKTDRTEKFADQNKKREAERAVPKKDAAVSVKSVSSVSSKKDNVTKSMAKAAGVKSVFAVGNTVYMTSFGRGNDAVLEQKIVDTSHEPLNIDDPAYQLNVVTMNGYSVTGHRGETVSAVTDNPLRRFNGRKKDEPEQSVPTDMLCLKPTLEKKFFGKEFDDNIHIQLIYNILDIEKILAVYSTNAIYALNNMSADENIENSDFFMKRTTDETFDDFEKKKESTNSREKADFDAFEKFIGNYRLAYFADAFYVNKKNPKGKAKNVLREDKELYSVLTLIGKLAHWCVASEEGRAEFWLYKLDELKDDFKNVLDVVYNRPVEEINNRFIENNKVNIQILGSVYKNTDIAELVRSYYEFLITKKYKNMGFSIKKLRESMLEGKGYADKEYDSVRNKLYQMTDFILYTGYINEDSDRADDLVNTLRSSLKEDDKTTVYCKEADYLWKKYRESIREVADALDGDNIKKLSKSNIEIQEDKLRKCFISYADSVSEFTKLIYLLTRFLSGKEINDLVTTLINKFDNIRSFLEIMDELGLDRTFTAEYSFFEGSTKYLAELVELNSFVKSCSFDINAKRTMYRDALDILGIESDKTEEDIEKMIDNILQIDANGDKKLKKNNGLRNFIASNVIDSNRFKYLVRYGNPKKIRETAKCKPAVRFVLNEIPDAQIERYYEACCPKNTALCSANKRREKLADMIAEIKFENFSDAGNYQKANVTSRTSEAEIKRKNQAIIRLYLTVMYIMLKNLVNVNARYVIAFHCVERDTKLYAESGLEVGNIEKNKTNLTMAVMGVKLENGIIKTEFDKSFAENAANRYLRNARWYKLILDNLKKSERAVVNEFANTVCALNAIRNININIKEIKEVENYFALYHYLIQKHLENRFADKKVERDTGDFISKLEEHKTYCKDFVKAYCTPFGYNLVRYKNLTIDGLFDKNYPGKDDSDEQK
# ASSAY PROTOCOL: crRNA (strand 1, pre-loaded); Mg2+; 40 mM Tris-HCl pH 7.5, 150 mM NaCl, 6 mM MgCl2, 1 mM DTT, 0.1% Tween-20, 0.2 mg/ml BSA; 25 C; 10 min per concentration, then washed
# RUN PARAMETERS: tags: His6-TwinStrep-SUMO cleaved; N-terminal SNAP kept (SNAP-Surface 488); label: 3' end held by stalled T7 RNA polymerase
ASSAY READOUT: pKd
Answers are plain numbers, as −log10 of the molar value.

Worked cases, pKd given:
# BINDER, VALUE REPORTED
records = [
    ("target 1 MT 5'PFS GGG 3'PFS CAG (mixed) RNA 1: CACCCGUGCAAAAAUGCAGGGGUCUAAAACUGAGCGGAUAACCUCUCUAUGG RNA 2: GGGAAUGGAUCCACAUCUACGAAUUCGGGCCAUAGAGAGGUUAUCCGCUCACAGAGAUCGGAAGAGCACACGU", 7.49),
    ("target 2 MT 5'PFS AUG 3'PFS UAA (mixed) RNA 1: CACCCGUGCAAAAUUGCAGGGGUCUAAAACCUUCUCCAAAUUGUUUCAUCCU RNA 2: GGGAAUGGAUCCACAUCUACGAAUUCAUGAGGAUGAAACAAUUUGGAGAAGUAAAGAUCGGAAGAGCACACGU", 8.10),
    ("target 1 MT 5'PFS UCG 3'PFS UGA (mixed) RNA 1: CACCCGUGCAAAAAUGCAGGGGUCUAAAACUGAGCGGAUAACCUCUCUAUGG RNA 2: GGGAAUGGAUCCACAUCUACGAAUUCUCGCCAUAGAGAGGUUAUCCGCUCAUGAAGAUCGGAAGAGCACACGU", 7.48),
    ("target 3 del2,del5 (mixed) RNA 1: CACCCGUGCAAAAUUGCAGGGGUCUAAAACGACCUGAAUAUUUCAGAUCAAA RNA 2: GGGAAUGGAUCCACAUCUACGAAUUCGUUUUUGAUCUGAAAUAUUCGGCUGCAGAUCGGAAGAGCACACGU", 8.27),
    ("target 2 MT 5'PFS GCC 3'PFS AAA (mixed) RNA 1: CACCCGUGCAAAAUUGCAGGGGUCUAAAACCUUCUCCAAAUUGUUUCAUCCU RNA 2: GGGAAUGGAUCCACAUCUACGAAUUCGCCAGGAUGAAACAAUUUGGAGAAGAAAAGAUCGGAAGAGCACACGU", 7.92),
    ("target 1 MT 5'PFS CCG 3'PFS UGU (mixed) RNA 1: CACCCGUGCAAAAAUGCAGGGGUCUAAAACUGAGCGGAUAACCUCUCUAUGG RNA 2: GGGAAUGGAUCCACAUCUACGAAUUCCCGCCAUAGAGAGGUUAUCCGCUCAUGUAGAUCGGAAGAGCACACGU", 8.00),
]

Your task in this section: give pKd for each listed record.
1. target 1 insG 3' of 10,insU 3' of 7 (mixed) RNA 1: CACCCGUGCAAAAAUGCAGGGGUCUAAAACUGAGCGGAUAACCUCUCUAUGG RNA 2: GGGAAUGGAUCCACAUCUACGAAUUCGUACCAUAGAGAGGUUGAUCUCGCUCACCGAGAUCGGAAGAGCACACGU
2. target 2 MT 5'PFS UGU 3'PFS AUU (mixed) RNA 1: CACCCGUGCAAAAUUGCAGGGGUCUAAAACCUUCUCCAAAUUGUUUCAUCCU RNA 2: GGGAAUGGAUCCACAUCUACGAAUUCUGUAGGAUGAAACAAUUUGGAGAAGAUUAGAUCGGAAGAGCACACGU
3. target 3 G3A,G4C (mixed) RNA 1: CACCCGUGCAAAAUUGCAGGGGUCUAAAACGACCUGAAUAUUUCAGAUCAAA RNA 2: GGGAAUGGAUCCACAUCUACGAAUUCGUUUUUGAUCUGAAAUAUUCACAUCUGCAGAUCGGAAGAGCACACGU
4. target 1 insA 3' of 22,insA 3' of 19 (mixed) RNA 1: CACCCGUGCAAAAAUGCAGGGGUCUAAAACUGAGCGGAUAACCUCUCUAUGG RNA 2: GGGAAUGGAUCCACAUCUACGAAUUCGUACACAUAAGAGAGGUUAUCCGCUCACCGAGAUCGGAAGAGCACACGU
5. target 2 MT 5'PFS AAU 3'PFS AUC (mixed) RNA 1: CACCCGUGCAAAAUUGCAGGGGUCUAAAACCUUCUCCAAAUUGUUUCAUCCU RNA 2: GGGAAUGGAUCCACAUCUACGAAUUCAAUAGGAUGAAACAAUUUGGAGAAGAUCAGAUCGGAAGAGCACACGU
6. target 1 insC 3' of 12,insA 3' of 4 (mixed) RNA 1: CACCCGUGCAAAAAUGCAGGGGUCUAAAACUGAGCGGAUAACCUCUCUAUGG RNA 2: GGGAAUGGAUCCACAUCUACGAAUUCGUACCAUAGAGAGGCUUAUCCGCAUCACCGAGAUCGGAAGAGCACACGU
7. target 1 A1G,U19G (mixed) RNA 1: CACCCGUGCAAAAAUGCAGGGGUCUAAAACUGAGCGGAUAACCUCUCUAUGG RNA 2: GGGAAUGGAUCCACAUCUACGAAUUCGUACCAGAGAGAGGUUAUCCGCUCGCCGAGAUCGGAAGAGCACACGU
8. target 2 MT 5'PFS AUA 3'PFS CGC (mixed) RNA 1: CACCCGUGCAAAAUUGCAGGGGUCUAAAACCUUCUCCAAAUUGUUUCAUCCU RNA 2: GGGAAUGGAUCCACAUCUACGAAUUCAUAAGGAUGAAACAAUUUGGAGAAGCGCAGAUCGGAAGAGCACACGU

[7.66, 7.92, 8.03, 7.42, 8.20, 8.15, 7.29, 8.11]

State the recorded pKd for this entry: target 1 MT 5'PFS UAA 3'PFS UAC (mixed) RNA 1: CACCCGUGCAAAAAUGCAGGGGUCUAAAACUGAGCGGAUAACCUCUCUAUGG RNA 2: GGGAAUGGAUCCACAUCUACGAAUUCUAACCAUAGAGAGGUUAUCCGCUCAUACAGAUCGGAAGAGCACACGU
7.55
